Every entry's value here was drawn from patent US8765746B2.

# target-desc: PI3Kalpha (Homo sapiens)
# Construct: His (N); host or cells: SF9 insect cells (baculovirus)
# measurement-notes: Human PI3Kα enzyme assay (HTRF)
# Type: biochemical
# measurement-context: read-out: PI3Kalpha % inh
endpoint: inhibition at 1.11 µM (%)
Give the number; % is assumed, so skip it.

Take a look at these entries with their results.
compound: CN1CC(c2ccc(Cl)cc2)c2cc(N3CCOCC3)sc2C1=O (centres unmarked) [Compound 198]
reading-unit: %
inhibition at 1.11 µM: 8.93

compound: COC(=O)[C@@H]1NC(=O)c2sc(N3CCOCC3)cc2[C@H]1c1ccc(Cl)c(Cl)c1 (relative stereo) [Compound 127]
reading-unit: %
inhibition at 1.11 µM: 31.4

compound: O=C1CC(c2ccc(Cl)cc2F)c2cc(N3CCOCC3)sc21 (centres unmarked) [Compound 117]
reading-unit: %
inhibition at 1.11 µM: 26.6

compound: CNC(=O)[C@@H]1NC(=O)c2sc(C3=CCOCC3)cc2[C@H]1c1ccc(Cl)cc1 [Compound 207]
reading-unit: %
inhibition at 1.11 µM: 42.9

compound: C=CCN1C(=O)c2sc(N3CCOCC3)cc2C(c2ccc(Cl)c(Cl)c2)C1C(=O)OC (centres unmarked) [Compound 166]
reading-unit: %
inhibition at 1.11 µM: 7.59

compound: O=C1NCC(c2ccc(Cl)cc2)c2c1sc(N1CCOCC1)c2C#Cc1cccnc1 (centres unmarked) [Compound 122]
reading-unit: %
inhibition at 1.11 µM: 97.8

compound: O=C1NCCC(c2ccc(Cl)cc2)c2cc(-c3ccncc3)sc21 (single isomer, unassigned) [Compound 21]
reading-unit: %
inhibition at 1.11 µM: 6.07

compound: O=C1NCC(c2ccc(Cl)cc2)c2cc(N3CCOCC3)sc21 (centres unmarked) [Compound 211]
reading-unit: %
inhibition at 1.11 µM: 20.5

compound: N#Cc1c(N2CCOCC2)sc2c1C(c1c(F)cc(Cl)cc1F)CNC2=O (centres unmarked) [Compound 151]
reading-unit: %
inhibition at 1.11 µM: 43.1

compound: Cc1cc(C2CNC(=O)c3sc(N4CCOCC4)c(C#N)c32)ccc1Cl (centres unmarked) [Compound 190]
reading-unit: %
inhibition at 1.11 µM: 57.5

Consider the compound shown here: O=C1CCCC(O)(c2ccc(Cl)cc2)c2cc(-c3ccncc3)sc21 (centres unmarked) [Compound 15] What is its recorded inhibition at 1.11 µM?
3.1

Consider the compound shown here: O=C1CC(c2ccc3ccccc3n2)c2cc(N3CCOCC3)sc21 (centres unmarked) [Compound 183] What is its recorded inhibition at 1.11 µM?
26.9

Consider the compound shown here: N#Cc1c(N2CCOCC2)sc2c1C(c1ccc3ccccc3c1)NC2=O (centres unmarked) [Compound 169] What is its recorded inhibition at 1.11 µM?
50.6

Consider the compound shown here: CC1(C)C(=O)c2sc(N3CCOCC3)cc2C1c1ccc(Cl)cc1 (centres unmarked) [Compound 161] What is its recorded inhibition at 1.11 µM?
12.1

Consider the compound shown here: O=C1NCC=C(c2ccc3ccncc3c2)c2nc(N3CCOCC3)sc21 [Compound 195] What is its recorded inhibition at 1.11 µM?
16.5

Consider the compound shown here: CC(=O)Nc1cc(-c2cc3c(s2)C(=O)CCC3c2ccc(Cl)cc2)ccn1 (centres unmarked) [Compound 7] What is its recorded inhibition at 1.11 µM?
20.5

Consider the compound shown here: O=C1NCCC(c2ccc(Cl)cc2)c2cc(-c3ccncc3)sc21 (racemic) [Compound 8] What is its recorded inhibition at 1.11 µM?
2.05

====

# inhibition at 1.11 µM listing for each entry below
# target-desc: VPS34 (Homo sapiens)
# Construct: GST (N); host or cells: SF9 insect cells (baculovirus)
# Sequence (Q8NEB9 whole entry): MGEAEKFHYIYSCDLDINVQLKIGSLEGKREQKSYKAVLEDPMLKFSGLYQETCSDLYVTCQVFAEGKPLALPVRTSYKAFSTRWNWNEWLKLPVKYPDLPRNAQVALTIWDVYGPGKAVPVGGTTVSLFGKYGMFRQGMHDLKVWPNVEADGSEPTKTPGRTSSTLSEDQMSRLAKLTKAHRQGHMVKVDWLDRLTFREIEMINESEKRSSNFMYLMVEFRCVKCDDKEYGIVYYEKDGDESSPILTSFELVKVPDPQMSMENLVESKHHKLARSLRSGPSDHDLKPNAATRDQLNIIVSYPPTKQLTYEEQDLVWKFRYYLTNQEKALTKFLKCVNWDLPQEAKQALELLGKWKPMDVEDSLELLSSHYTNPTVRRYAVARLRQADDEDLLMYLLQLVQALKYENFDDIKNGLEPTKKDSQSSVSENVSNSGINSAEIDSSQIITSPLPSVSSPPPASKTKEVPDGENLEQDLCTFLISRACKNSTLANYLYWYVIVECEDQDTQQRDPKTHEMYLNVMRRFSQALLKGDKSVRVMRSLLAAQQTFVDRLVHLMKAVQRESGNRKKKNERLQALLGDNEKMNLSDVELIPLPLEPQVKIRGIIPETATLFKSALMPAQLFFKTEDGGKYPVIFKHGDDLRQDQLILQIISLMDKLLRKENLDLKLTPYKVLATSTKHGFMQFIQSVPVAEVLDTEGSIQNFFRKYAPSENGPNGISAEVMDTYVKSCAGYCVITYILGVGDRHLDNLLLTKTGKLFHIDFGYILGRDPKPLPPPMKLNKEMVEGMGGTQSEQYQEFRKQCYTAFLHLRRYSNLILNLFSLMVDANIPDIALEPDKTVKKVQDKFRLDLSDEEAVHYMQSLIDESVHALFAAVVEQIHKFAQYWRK
# measurement-notes: Human VPS34 enzyme assay (Adapta Universal Kinase Assay)
# Type: biochemical
# measurement-context: 1 h, read-out: VPS34 % ihn
Give the number; % is assumed, so skip it.

compound: O=C1NCCCC(c2ccc(Cl)cc2)c2cc(-c3ccncc3)sc21 (centres unmarked)
inhibition at 1.11 µM, %: 2
--
compound: Clc1ccc(C2Cc3cn[nH]c3-c3sc(-c4ccncc4)cc32)cc1 (centres unmarked)
inhibition at 1.11 µM, %: -6
--
compound: Cc1nn2ccccc2c1-c1nc2c(s1)C(=O)CCC2c1ccc(Cl)cc1 (centres unmarked)
inhibition at 1.11 µM, %: 0.9
--
compound: N#Cc1c(N2CCOCC2)sc2c1C(c1c(F)cc(Cl)cc1F)CCNC2=O (centres unmarked)
inhibition at 1.11 µM, %: 11.6

Consider the record given below.
Form: Entry = `O=S1(=O)NC=C(c2ccc(Cl)cc2)c2cc(-c3ccncc3)sc21` | System = VPS34 (Homo sapiens) | inhibition at 1.11 µM = ____
8.5

====

# target-desc: PI3Kalpha (Homo sapiens, UniProt P42336)
# Construct: His (N); host or cells: SF9 insect cells (baculovirus)
# Sequence (P42336 whole entry): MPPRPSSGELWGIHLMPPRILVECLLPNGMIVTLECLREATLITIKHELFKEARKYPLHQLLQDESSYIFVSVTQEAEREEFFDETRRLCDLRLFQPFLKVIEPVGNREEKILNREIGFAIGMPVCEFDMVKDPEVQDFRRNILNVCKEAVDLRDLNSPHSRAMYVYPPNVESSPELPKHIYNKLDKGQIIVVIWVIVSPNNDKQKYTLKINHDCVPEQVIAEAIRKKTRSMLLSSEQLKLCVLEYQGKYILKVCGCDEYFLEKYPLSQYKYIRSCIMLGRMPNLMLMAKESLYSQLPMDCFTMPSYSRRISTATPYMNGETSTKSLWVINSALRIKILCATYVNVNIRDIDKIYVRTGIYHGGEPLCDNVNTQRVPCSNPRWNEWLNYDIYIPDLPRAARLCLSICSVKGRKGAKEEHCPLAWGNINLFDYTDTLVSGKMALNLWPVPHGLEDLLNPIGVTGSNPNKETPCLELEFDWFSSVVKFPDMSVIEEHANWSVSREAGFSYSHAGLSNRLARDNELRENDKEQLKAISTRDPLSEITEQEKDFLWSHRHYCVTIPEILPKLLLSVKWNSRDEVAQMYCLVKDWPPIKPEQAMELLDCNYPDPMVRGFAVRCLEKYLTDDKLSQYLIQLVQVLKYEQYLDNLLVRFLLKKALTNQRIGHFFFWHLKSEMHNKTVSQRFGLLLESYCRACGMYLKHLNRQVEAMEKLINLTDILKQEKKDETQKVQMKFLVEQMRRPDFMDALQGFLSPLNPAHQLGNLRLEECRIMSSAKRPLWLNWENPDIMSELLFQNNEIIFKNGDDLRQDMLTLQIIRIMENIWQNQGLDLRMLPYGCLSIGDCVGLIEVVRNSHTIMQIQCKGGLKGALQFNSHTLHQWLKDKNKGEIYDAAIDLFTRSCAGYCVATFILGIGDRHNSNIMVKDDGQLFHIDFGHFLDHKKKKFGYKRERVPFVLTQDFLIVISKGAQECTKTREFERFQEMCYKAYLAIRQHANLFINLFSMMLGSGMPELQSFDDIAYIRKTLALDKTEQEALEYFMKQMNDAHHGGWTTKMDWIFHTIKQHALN
# Sequence (P27986 whole entry partner): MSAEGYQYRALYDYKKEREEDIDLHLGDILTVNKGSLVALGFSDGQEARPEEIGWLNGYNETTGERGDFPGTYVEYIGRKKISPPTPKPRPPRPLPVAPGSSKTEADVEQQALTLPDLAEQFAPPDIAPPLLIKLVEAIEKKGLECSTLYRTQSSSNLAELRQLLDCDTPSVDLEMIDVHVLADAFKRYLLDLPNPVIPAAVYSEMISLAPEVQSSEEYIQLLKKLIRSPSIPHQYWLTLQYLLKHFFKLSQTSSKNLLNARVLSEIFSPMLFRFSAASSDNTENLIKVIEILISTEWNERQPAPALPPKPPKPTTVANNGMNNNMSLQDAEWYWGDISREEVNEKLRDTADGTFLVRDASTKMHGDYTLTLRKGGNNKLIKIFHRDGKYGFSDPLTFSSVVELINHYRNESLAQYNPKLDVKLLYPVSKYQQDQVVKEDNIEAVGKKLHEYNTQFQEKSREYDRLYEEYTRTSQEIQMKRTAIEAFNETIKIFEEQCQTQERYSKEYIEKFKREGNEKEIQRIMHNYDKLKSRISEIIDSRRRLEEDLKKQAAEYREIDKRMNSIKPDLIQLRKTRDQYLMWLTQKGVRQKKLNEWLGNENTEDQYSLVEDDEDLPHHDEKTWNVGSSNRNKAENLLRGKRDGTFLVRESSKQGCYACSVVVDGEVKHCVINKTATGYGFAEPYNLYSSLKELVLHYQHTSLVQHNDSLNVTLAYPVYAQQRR
# measurement-notes: Human PI3Kα enzyme assay (HTRF)
# Assay type: biochemical
# measurement-context: read-out: PI3Kalpha % inh
endpoint: inhibition at 1.11 µM (%)
Give the number; % is assumed, so skip it.

molecule: O=C1CC(c2ccc(Cl)c(Cl)c2)c2cc(N3CCOCC3)sc21 (centres unmarked)
reading-unit: %
inhibition at 1.11 µM: 48.1
//
molecule: O=C1NCC(c2ccc(Cl)cc2)c2nc(N3CCOCC3)sc21 (centres unmarked)
reading-unit: %
inhibition at 1.11 µM: 12.2
//
molecule: COC(=O)[C@@H]1C(=O)c2sc(-c3ccncc3)cc2[C@H]1c1ccc(Cl)cc1 (relative stereo)
reading-unit: %
inhibition at 1.11 µM: 6
//
molecule: O=C1NCC(c2ccc(Cl)cc2)c2c1sc(N1CCOCC1)c2C#Cc1ccccc1 (single isomer, unassigned)
reading-unit: %
inhibition at 1.11 µM: 16.1
//
molecule: O=C1NCCC(c2ccc3ccncc3c2)c2nc(N3CCOCC3)sc21 (centres unmarked)
reading-unit: %
inhibition at 1.11 µM: 13.3
//
molecule: N#Cc1c(N2CCOCC2)sc2c1C(c1ccc(Cl)c(Cl)c1)CNC2=O (centres unmarked)
reading-unit: %
inhibition at 1.11 µM: 67.2
//
molecule: N#Cc1c(N2CCOCC2)sc2c1C(c1ccc3ccccc3c1)CCNC2=O (centres unmarked)
reading-unit: %
inhibition at 1.11 µM: 102

Consider the record given below.
Consider the molecule shown here: CC1(C)C(=O)c2sc(-c3ccncc3)cc2C1c1ccc(Cl)cc1 (centres unmarked) What is its recorded inhibition at 1.11 µM?
3.15

====

Target or system PI3Kbeta (Homo sapiens); recorded quantity IC50.

Take a look at these entries with their results.
compound: O=C1NCC(c2ccc(Cl)cc2)c2cc(-c3ccncc3)sc21 (centres unmarked) [Compound 30]
IC50: < 100 nM

compound: CC(=O)Nc1cc(-c2cc3c(s2)C(=O)NCCC3c2ccc(Cl)cc2)ccn1 (centres unmarked) [Compound 1]
IC50: < 100 nM

compound: CC1(C)CC(=O)c2sc(-c3ccncc3)cc2C1c1ccc(Cl)cc1 (centres unmarked) [Compound 10]
IC50: 100 to 1000 nM

compound: O=S1(=O)NCC(O)(c2ccc(Cl)cc2)c2cc(-c3ccncc3)sc21 (single isomer, unassigned) [Compound 9]
IC50: 100 to 1000 nM

compound: O=C1CCCC(c2ccc(Cl)cc2)c2cc(-c3ccncc3)sc21 (centres unmarked) [Compound 19]
IC50: 100 to 1000 nM

Consider the compound shown here: O=C1NCCC(c2ccc(Cl)cc2)c2cc(-c3ccncc3)sc21 (racemic) [Compound 8] What is its recorded IC50?
< 100 nM

Consider the compound shown here: Clc1ccc(C2CCc3cn[nH]c3-c3sc(-c4ccncc4)cc32)cc1 (centres unmarked) [Compound 6] What is its recorded IC50?
< 100 nM

Consider the compound shown here: COC(=O)[C@@H]1C(=O)c2sc(-c3ccncc3)cc2[C@H]1c1ccc(Cl)cc1 (relative stereo) [Compound 29] What is its recorded IC50?
100 to 1000 nM

====

# target-desc: PI3Kbeta (Homo sapiens)
# Construct: His (N); host or cells: SF9 insect cells (baculovirus)
# Sequence (P42338 whole entry): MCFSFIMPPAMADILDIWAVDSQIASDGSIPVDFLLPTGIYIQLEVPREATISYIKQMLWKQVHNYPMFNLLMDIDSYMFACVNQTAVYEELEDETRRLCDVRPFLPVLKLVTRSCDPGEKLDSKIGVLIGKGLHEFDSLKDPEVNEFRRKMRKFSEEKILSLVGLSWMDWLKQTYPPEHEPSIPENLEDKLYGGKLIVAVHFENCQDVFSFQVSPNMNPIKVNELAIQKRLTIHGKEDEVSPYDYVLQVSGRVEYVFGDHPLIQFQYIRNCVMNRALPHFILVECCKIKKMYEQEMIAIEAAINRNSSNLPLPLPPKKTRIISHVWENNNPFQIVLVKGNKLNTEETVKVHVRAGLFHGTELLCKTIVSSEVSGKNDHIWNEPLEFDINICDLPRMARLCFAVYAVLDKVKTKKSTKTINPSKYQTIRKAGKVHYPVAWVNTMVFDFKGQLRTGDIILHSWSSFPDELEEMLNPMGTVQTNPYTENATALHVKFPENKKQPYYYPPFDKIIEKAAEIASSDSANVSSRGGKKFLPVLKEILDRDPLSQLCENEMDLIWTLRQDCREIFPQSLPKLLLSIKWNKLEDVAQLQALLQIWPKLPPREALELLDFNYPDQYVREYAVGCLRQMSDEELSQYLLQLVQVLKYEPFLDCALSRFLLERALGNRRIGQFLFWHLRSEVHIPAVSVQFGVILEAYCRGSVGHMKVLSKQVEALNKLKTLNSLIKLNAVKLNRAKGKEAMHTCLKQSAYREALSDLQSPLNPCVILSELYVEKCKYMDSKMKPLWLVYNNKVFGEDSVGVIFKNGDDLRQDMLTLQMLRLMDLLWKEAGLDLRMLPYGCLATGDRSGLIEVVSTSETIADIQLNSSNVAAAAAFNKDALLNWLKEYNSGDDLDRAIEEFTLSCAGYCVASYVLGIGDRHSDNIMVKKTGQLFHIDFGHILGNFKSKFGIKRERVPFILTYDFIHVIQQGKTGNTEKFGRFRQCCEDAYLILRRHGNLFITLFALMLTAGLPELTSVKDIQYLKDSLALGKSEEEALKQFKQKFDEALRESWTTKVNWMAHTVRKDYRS
# Sequence (P27986 whole entry partner): as the sequence (P27986 whole entry partner) above
# measurement-notes: Human PI3K beta enzyme assay (HTRF, as for PI3K alpha)
# Format: biochemical
# measurement-context: read-out: IC50 (inhibit PI3Kbeta)
pIC50: −log10 of the molar value.
endpoint: pIC50

molecule: O=S1(=O)NC=C(c2ccc(Cl)cc2)c2cc(-c3ccncc3)sc21
target-desc: PI3Kbeta (Homo sapiens)
pIC50: 6.00 to 7.00
//
molecule: O=S1(=O)NCC(O)(c2ccc(Cl)cc2)c2cc(-c3ccncc3)sc21 (single isomer, unassigned) [Compound 2]
target-desc: PI3Kbeta (Homo sapiens)
pIC50: > 7.00
//
molecule: O=C1NCCC(c2ccc(Cl)cc2)c2cc(-c3ccncc3)sc21 (single isomer, unassigned) [Compound 25]
target-desc: PI3Kbeta (Homo sapiens)
pIC50: 6.00 to 7.00

Consider the record given below.
Consider the molecule shown here: O=C1CCC(c2ccc(Cl)cc2)c2cc(-c3ccncc3)sc21 (single isomer, unassigned) What is its recorded pIC50?
< 6.00
